# method.description: in vivo
# assay.setup: male, Wistar, rat, plasma, po, 10 mg/kg, Cmax (maximum plasma concentration), rat plasma, single oral dose 10 mg/kg LE300, mean ± SD, six rats
result.type: Cmax
# number then unit; no other words

Sure, the documented Cmax for CN1CCc2ccccc2Cc2[nH]c3ccccc3c2CC1 [LE300] is 151 ng/mL

Recorded values, source paper PMC9964957.
